test system: KUNV-Nanoluc; test: organism not typed; assay type: cell-based; settings: Vero C1008, read-out: KUNV EC50, μM
Assignment: determine reported EC50 for the given molecules.

Examples with answers:
molecule	EC50
O=[N+]([O-])c1c(Nc2ccccc2O)cc(Cl)c2nonc12	8.9 µM
O[C@H]1[C@H]2c3cc4c(cc3CN3CCC(=C[C@@H]1O)[C@H]23)OCO4	0.17 µM
CC(C)(C)Oc1cccc2nc(N)nc(N)c12	0.26 µM
CN1C(=O)C2(CC(=O)Nc3c2cnn3Cc2ccc(Cl)cc2)c2cc(Cl)ccc21 (centres unmarked)	20.6 µM

Query molecule follows.
Query: Suppose we examine the molecule COc1c(C)c2c(c(O)c1CC=C(C)CCC(=O)O)C(=O)OC2 ; what EC50 value has been reported?
Reply: 0.21 µM

Origin of measurements: paper PMC11944514
